Reported values of Decrease for individual entries
Test system: Rattus norvegicus
Assay: Percent decrease in serum cholesterol relative to OVX control at 0.1 mg/kg in rats
Type: functional
Provide the reading as a plain figure in %.

Worked examples follow.
mol.smiles: Cc1sc2cc(O)ccc2c1C(=O)c1ccc(OCCN2CCCCC2)cc1
Decrease, %: 8.3
--
mol.smiles: O=C(c1ccc(OCCN2CCCCC2)cc1)c1c(C2CCCC2)sc2cc(O)ccc12
Decrease, %: 18.4
--
mol.smiles: O=C(c1ccc(OCCN2CCCCC2)cc1)c1c(-c2ccc(O)c3ccccc23)sc2cc(O)ccc12
Decrease, %: 31.6

Decrease measured on CC(C)c1sc2cc(O)ccc2c1C(=O)c1ccc(OCCN2CCCCC2)cc1 = 12.4

Decrease measured on O=C(c1ccc(OCCN2CCCCC2)cc1)c1c(C2CCCCC2)sc2cc(O)ccc12 = -0.1

Decrease measured on O=C(c1ccc(OCCN2CCCCC2)cc1)c1c(-c2ccsc2)sc2cc(O)ccc12 = 0.6

====

Tested on: Rattus norvegicus
Assay: Percent protection of bone mineral density in the distal femur of OVX rat at a dose of 1 mg/kg/day
Assay type: functional
Labelling: Protection reported below 60% becomes Met; at or above becomes Not met.

Example results:
compound: O=C(c1ccc(OCCN2CCCCC2)cc1)c1c(-c2ccc(O)cc2)sc2cc(O)ccc12 [RALOXIFENE]
cat: Met
//
compound: O=C(c1ccc(OCCN2CCCCC2)cc1)c1c(-c2cccc(O)c2)sc2cc(O)ccc12
cat: Not met
//
compound: O=C(c1ccc(OCCN2CCCCC2)cc1)c1c(-c2ccc(O)c3ccccc23)sc2cc(O)ccc12
cat: Not met
//
compound: O=C(c1ccc(OCCN2CCCCC2)cc1)c1c(-c2ccc(O)c(F)c2)sc2cc(O)ccc12
cat: Not met
//
compound: Cl.O=C(c1ccc(OCCN2CCCCC2)cc1)c1c(-c2ccc(O)cc2)sc2ccccc12
cat: Met

Then this compound:
Task: Does the reported Protection of COC(=O)c1ccc2c(C(=O)c3ccc(OCCN4CCCCC4)cc3)c(-c3ccc(O)cc3)sc2c1.Cl stay below 60%?
Result: Met

====

Target: Estrogen receptor (Homo sapiens, UniProt Q92731+P03372)
Conditions: mcf7
Reported values of IC50 for individual entries
Provide the reading as a plain figure in nM.

mol.smiles: COc1ccc(-c2sc3c(OC)c(OC)c(OC)cc3c2C(=O)c2ccc(OCCN3CCCCC3)cc2)cc1.Cl
tested.system: Estrogen receptor (Homo sapiens, UniProt Q92731+P03372)
IC50 (nM): 350

IC50 measured on O=C(c1ccc(OCCN2CCCCC2)cc1)c1c(-c2ccc(O)cc2)sc2cccc(O)c12 = 190

IC50 measured on Cc1c(O)cc(C)c2c(C(=O)c3ccc(OCCN4CCCCC4)cc3)c(-c3ccc(O)cc3)sc12 = 100

====

Reported values of IC50 for individual entries
Target: Estrogen receptor (Homo sapiens, UniProt Q92731+P03372)
Conditions: mcf7
Could you write the number and then its unit?

mol.smiles: O=C(c1ccc(OCCN2CCCCC2)cc1)c1c(-c2cccc(F)c2)sc2cc(O)ccc12
IC50: 2.5 nM

mol.smiles: Cc1cc(-c2sc3cc(O)ccc3c2C(=O)c2ccc(OCCN3CCCCC3)cc2)cc(C)c1O
IC50: 100 nM

IC50 measured on O=C(c1ccc(OCCN2CCCCC2)cc1)c1c(-c2ccc(C(F)(F)F)cc2)sc2cc(O)ccc12 = 1000 nM

IC50 measured on Cc1cc(-c2sc3cc(O)ccc3c2C(=O)c2ccc(OCCN3CCCCC3)cc2)ccc1O = 1 nM

IC50 measured on O=C(c1ccc(OCCN2CCCCC2)cc1)c1c(-c2ccc([N+](=O)[O-])cc2)sc2cc(O)ccc12 = 500 nM

====

System: Rattus norvegicus
Experiment: Minimum effective dose at which significant increase in uterine weight/body weight in rat was determined (in vivo)
Format: functional
Conditions: read-out: MED
Reported values of minimal effective dose for individual entries
Provide the reading as a plain figure in mg/kg.

Worked examples follow.
mol.smiles: O=C(c1ccc(OCCN2CCCCC2)cc1)c1c(-c2ccc(O)c(F)c2)sc2cc(O)ccc12
minimal effective dose / mg/kg: 0.1
//
mol.smiles: NC(=O)c1ccc2c(C(=O)c3ccc(OCCN4CCCCC4)cc3)c(-c3ccc(O)cc3)sc2c1
minimal effective dose / mg/kg: 10
//
mol.smiles: Cl.O=C(c1ccc(OCCN2CCCCC2)cc1)c1c(-c2ccc(Cl)cc2)sc2cc(O)ccc12
minimal effective dose / mg/kg: 0.1
//
mol.smiles: O=C(c1ccc(OCCN2CCCCC2)cc1)c1c2ccc(O)cc2sc1[C@H]1CC[C@H](O)CC1
minimal effective dose / mg/kg: 0.1
//
mol.smiles: O=C(c1ccc(OCCN2CCCCC2)cc1)c1c(-c2ccc(C(F)(F)F)cc2)sc2cc(O)ccc12
minimal effective dose / mg/kg: 5

minimal effective dose measured on O=C(c1ccc(OCCN2CCCCC2)cc1)c1c(-c2ccc3ccccc3c2)sc2cc(O)ccc12 = 0.1

====

Test system: Rattus norvegicus
Assay: Percent decrease in serum cholesterol relative to OVX control at 0.1 mg/kg in rats
Format: functional
readout: Decrease
Could you write the number and then its unit?

mol.smiles: O=C(c1ccc(OCCN2CCCCC2)cc1)c1c(-c2ccncc2)sc2cc(O)ccc12
Decrease: 7.2%
--
mol.smiles: O=C(c1ccc(OCCN2CCCCC2)cc1)c1c(Cc2ccc(O)cc2)sc2cc(O)ccc12
Decrease: -17.6%

Decrease measured on CCc1sc2cc(O)ccc2c1C(=O)c1ccc(OCCN2CCCCC2)cc1 = 4.4%

====

Target: Estrogen receptor (Homo sapiens, UniProt Q92731+P03372)
Conditions: mcf7
readout: IC50 (nM)
Provide the reading as a plain figure in nM.

mol.smiles: Cl.O=C(c1ccc(OCCN2CCCCC2)cc1)c1c(-c2ccccc2)sc2cc(O)ccc12
units.symbol: nM
readout.number: 2.5

IC50 measured on Cl.O=C(c1ccc(OCCN2CCCCC2)cc1)c1c(-c2ccc(F)cc2)sc2cc(O)ccc12 = 2.3

====

Tested on: Rattus norvegicus
Experiment: Eosinophil peroxidase activity expressed as Vmax was determined in rat (in vivo) Eosinophil peroxidase activity expressed as Vmax was determined in rat (in vivo)
Type: functional
Set-up: unit not given here
Labelling: Eosinophil peroxidase activity (Vmax) reported below 30 becomes condition met; at or above becomes condition not met.

Example results:
mol.smiles: COC(=O)c1ccc(-c2sc3cc(O)ccc3c2C(=O)c2ccc(OCCN3CCCCC3)cc2)cc1
cat: condition met
--
mol.smiles: CSc1ccc(-c2sc3cc(O)ccc3c2C(=O)c2ccc(OCCN3CCCCC3)cc2)cc1
cat: condition not met
--
mol.smiles: Cc1cc(-c2sc3cc(O)ccc3c2C(=O)c2ccc(OCCN3CCCCC3)cc2)cc(C)c1O
cat: condition not met
--
mol.smiles: CCCCc1ccc(-c2sc3cc(O)ccc3c2C(=O)c2ccc(OCCN3CCCCC3)cc2)cc1
cat: condition met

Task: Does the reported Eosinophil peroxidase activity (Vmax) of C=Cc1ccc(-c2sc3cc(O)ccc3c2C(=O)c2ccc(OCCN3CCCCC3)cc2)cc1 stay below 30?
Result: condition not met

Task: Does the reported Eosinophil peroxidase activity (Vmax) of CCSCc1ccc(-c2sc3cc(O)ccc3c2C(=O)c2ccc(OCCN3CCCCC3)cc2)cc1 stay below 30?
Result: condition not met

Task: Does the reported Eosinophil peroxidase activity (Vmax) of O=C(c1ccc(OCCN2CCCCC2)cc1)c1c(-c2ccc(-c3ccccc3)cc2)sc2cc(O)ccc12 stay below 30?
Result: condition met

====

System: Rattus norvegicus
Experiment: Minimum effective dose at which significant increase in uterine weight/body weight in rat was determined (in vivo); expressed as % increase relative to ovariectomized (OVX) controls
Type: functional
Reported values of Increase for individual entries
Provide the reading as a plain figure in %.

Worked examples follow.
mol.smiles: Cl.O=C(c1ccc(OCCN2CCCCC2)cc1)c1c(-c2ccc(O)cc2)sc2cc(Cl)ccc12
tested.system: Rattus norvegicus
Increase, %: 49.6
--
mol.smiles: CCc1sc2cc(O)ccc2c1C(=O)c1ccc(OCCN2CCCCC2)cc1
tested.system: Rattus norvegicus
Increase, %: 55.03
--
mol.smiles: O=C(c1ccc(OCCN2CCCCC2)cc1)c1c(-c2ccc(O)c(F)c2)sc2cc(O)ccc12
tested.system: Rattus norvegicus
Increase, %: 34.3

Increase measured on COc1ccc(-c2sc3cc(OC)ccc3c2C(=O)c2ccc(OCCN3CCCCC3)cc2)cc1.Cl = 57.3

Increase measured on O=C(O)c1ccc2c(C(=O)c3ccc(OCCN4CCCCC4)cc3)c(-c3ccc(O)cc3)sc2c1 = 40.8

Increase measured on COc1ccc2c(C(=O)c3ccc(OCCN4CCCCC4)cc3)c(-c3ccc(O)cc3)sc2c1 = 33.5

Increase measured on Cl.O=C(c1ccc(OCCN2CCCCC2)cc1)c1c(-c2ccccc2)sc2ccccc12 = 59.2

Increase measured on CCc1ccc(-c2sc3cc(O)ccc3c2C(=O)c2ccc(OCCN3CCCCC3)cc2)cc1 = 29.7

Increase measured on COC(=O)c1ccc2c(C(=O)c3ccc(OCCN4CCCCC4)cc3)c(-c3ccc(O)cc3)sc2c1.Cl = 37.5
